- TEST SUMMARY: Cytotoxicity against african green monkey Vero cells after 24 hrs
- Type: cell-based
- ASSAY CONDITIONS: chlorocebus sabaeus, read-out: LD50
ENDPOINT: CC50 at 24 h (mM)
Give the quantity in mM, number only.

1. COc1ccc(NC(=S)NNC(=O)c2nc[nH]c2C)cc1    1
2. Cc1[nH]cnc1C(=O)NNC(=S)Nc1ccccc1    1
3. Cc1[nH]cnc1C(=O)N/N=C1\SC(CC(=O)O)C(=O)N1c1ccccc1 (centres undefined)    5
4. COc1ccc(N2C(=O)C(CC(=O)O)S/C2=N\NC(=O)c2nc[nH]c2C)cc1 (centres undefined)    5
5. Cc1[nH]cnc1C(=O)NNC(=S)Nc1ccc(F)cc1    10

Moving on to another compound below.
**Query** // query CC50 at 24 h value for entry Cc1[nH]cnc1C(=O)N/N=C1\SC(CC(=O)O)C(=O)N1c1ccc(F)cc1 (centres undefined)
**Result** 5

* * *

- TEST SUMMARY: Cytotoxicity against african green monkey Vero cells infected with tachyzoites of Toxoplasma gondii RH after 24 hrs
- Type: cell-based
- ASSAY CONDITIONS: chlorocebus sabaeus, read-out: LD50
CC50 at 24 h values, listed per item
Give the quantity in µM, number only.

Reference set, count: 2
1) Cc1[nH]cnc1-c1nnc(Nc2ccc(Cl)cc2)s1    80
2) COc1ccc(N2C(=O)C(CC(=O)O)S/C2=N\NC(=O)c2nc[nH]c2C)cc1 (centres undefined)    1000

**Query** // query CC50 at 24 h value for entry Cc1[nH]cnc1C(=O)NNC(=S)Nc1ccc(F)cc1
**Result** 60

**Query** // query CC50 at 24 h value for entry Cc1[nH]cnc1-c1nnc(Nc2ccccc2)s1
**Result** 600

**Query** // query CC50 at 24 h value for entry Cc1[nH]cnc1-c1nnc(Nc2ccc(F)cc2)s1
**Result** 70

**Query** // query CC50 at 24 h value for entry Cc1[nH]cnc1C(=O)N/N=C1\SC(CC(=O)O)C(=O)N1c1ccc(Cl)cc1 (centres undefined)
**Result** 1000

**Query** // query CC50 at 24 h value for entry COc1ccc(Nc2nnc(-c3nc[nH]c3C)s2)cc1
**Result** 100

* * *

- System: Bacillus subtilis
- TEST SUMMARY: Antibacterial activity against Bacillus subtilis UFPEDA 16 after 24 to 48 hrs by serial dilution method
- Type: functional
MIC values, listed per item
Give the quantity in mg/L, number only.

Reference set, count: 5
1) COc1ccc(NC(=S)NNC(=O)c2nc[nH]c2C)cc1    160
2) Cc1[nH]cnc1C(=O)N/N=C1\SC(CC(=O)O)C(=O)N1c1ccccc1 (stereo unspecified)    270
3) Cc1[nH]cnc1C(=O)NNC(=S)Nc1ccc(F)cc1    130
4) Cc1[nH]cnc1C(=O)NNC(=S)Nc1ccc(Cl)cc1    130
5) O=C(N[C@H](CO)[C@H](O)c1ccc([N+](=O)[O-])cc1)C(Cl)Cl    30

Moving on to another compound below.
**Query** // query MIC value for entry Cc1[nH]cnc1C(=O)NNC(=S)Nc1ccccc1
**Result** 140

* * *

- Test system: Bacillus subtilis
- TEST SUMMARY: Antibacterial activity against Bacillus subtilis UFPEDA 16 by disc diffusion method
- Format: functional
inhibition zone (IZ) values, listed per item
Give the quantity in mm, number only.

Reference set, count: 2
1. COc1ccc(NC(=S)NNC(=O)c2nc[nH]c2C)cc1    22
2. Cc1[nH]cnc1C(=O)N/N=C1\SC(CC(=O)O)C(=O)N1c1ccccc1 (stereo not given)    27

**Query** # value lookup — system Bacillus subtilis, readout inhibition zone (IZ), item Cc1[nH]cnc1C(=O)NNC(=S)Nc1ccccc1
**Result** 27

**Query** # value lookup — system Bacillus subtilis, readout inhibition zone (IZ), item Cc1[nH]cnc1C(=O)NNC(=S)Nc1ccc(F)cc1
**Result** 28

**Query** # value lookup — system Bacillus subtilis, readout inhibition zone (IZ), item Cc1[nH]cnc1C(=O)NNC(=S)Nc1ccc(Cl)cc1
**Result** 29

* * *

- Tested on: Toxoplasma gondii
- TEST SUMMARY: Antimicrobial activity against tachyzoites of Toxoplasma gondii RH infected in Vero cells assessed as reduction of infected cells after 24 hrs
- Type: functional
- ASSAY CONDITIONS: read-out: LD50 (the source's name)
ENDPOINT: log10 of LC50 (log10 of the value in µM)
Would you kindly interpret these values as log10 of LC50 expressed in µM?

1. Cc1[nH]cnc1C(=O)NNC(=S)Nc1ccccc1    1.70
2. Cc1[nH]cnc1-c1nnc(Nc2ccc(F)cc2)s1    1.70

**Query** # value lookup — system Toxoplasma gondii, readout log10 of LC50, item COc1ccc(N2C(=O)C(CC(=O)O)S/C2=N\NC(=O)c2nc[nH]c2C)cc1 (centres undefined)
**Result** 2.70

**Query** # value lookup — system Toxoplasma gondii, readout log10 of LC50, item Cc1[nH]cnc1C(=O)NNC(=S)Nc1ccc(F)cc1
**Result** 1.70

**Query** # value lookup — system Toxoplasma gondii, readout log10 of LC50, item COc1ccc(Nc2nnc(-c3nc[nH]c3C)s2)cc1
**Result** 1.70

**Query** # value lookup — system Toxoplasma gondii, readout log10 of LC50, item Cc1[nH]cnc1C(=O)N/N=C1\SC(CC(=O)O)C(=O)N1c1ccc(F)cc1 (centres undefined)
**Result** 2.00

**Query** # value lookup — system Toxoplasma gondii, readout log10 of LC50, item Cc1[nH]cnc1C(=O)NNC(=S)Nc1ccc(Cl)cc1
**Result** 1.78

**Query** # value lookup — system Toxoplasma gondii, readout log10 of LC50, item Cc1[nH]cnc1-c1nnc(Nc2ccccc2)s1
**Result** 1.70

* * *

- TEST SUMMARY: Cytotoxicity against african green monkey Vero cells infected with tachyzoites of Toxoplasma gondii RH after 24 hrs
- Assay type: cell-based
- ASSAY CONDITIONS: chlorocebus sabaeus, read-out: LD50
log10(CC50 at 24 h) values, listed per item
Would you kindly interpret these values as log10 of CC50 at 24 h expressed in µM?

Reference set, count: 4
1. Cc1[nH]cnc1C(=O)N/N=C1\SC(CC(=O)O)C(=O)N1c1ccc(F)cc1 (configuration not stated)    3.00
2. Cc1[nH]cnc1C(=O)NNC(=S)Nc1ccccc1    1.70
3. COc1ccc(NC(=S)NNC(=O)c2nc[nH]c2C)cc1    1.85
4. Cc1[nH]cnc1C(=O)NNC(=S)Nc1ccc(Cl)cc1    1.78

Moving on to another molecule below.
**Query** // query log10(CC50 at 24 h) value for entry Cc1[nH]cnc1C(=O)N/N=C1\SC(CC(=O)O)C(=O)N1c1ccccc1 (configuration not stated)
**Result** 3.70

* * *

LC50 values, listed per item
- System: Toxoplasma gondii
- TEST SUMMARY: Antimicrobial activity against tachyzoites of Toxoplasma gondii RH infected in Vero cells assessed as reduction of infected cells after 24 hrs
- Type: functional
- ASSAY CONDITIONS: read-out: LD50 (the source's name)
Give the quantity in mM, number only.

Reference set, count: 5
1. Cc1[nH]cnc1-c1nnc(Nc2ccc(Cl)cc2)s1    0.05
2. Cc1[nH]cnc1C(=O)N/N=C1\SC(CC(=O)O)C(=O)N1c1ccc(Cl)cc1 (stereo unspecified)    1.5
3. Cc1[nH]cnc1C(=O)N/N=C1\SC(CC(=O)O)C(=O)N1c1ccccc1 (stereo unspecified)    1.5
4. Nc1ccc(S(=O)(=O)Nc2ncccn2)cc1 [SULFADIAZINE]    6
5. NC(=O)NO [HYDROXYUREA]    0.5

Moving on to another molecule below.
**Query** // query LC50 value for entry COc1ccc(NC(=S)NNC(=O)c2nc[nH]c2C)cc1
**Result** 0.06
